biological target: serine acetyltransferase; assay: Serine acetyltransferase enzyme activity test with and without L-cysteine (inhibitor constant Ki, specific activity); assay type: biochemical, E. coli; conditions: Table 6; carboxyterminal deletions; inhibitor L-cysteine
endpoint.name: Ki (µM)
Report the value in µM with no unit label.

Recorded results for 4 molecules are shown here.
[[record]]
molecule = "cysE-Del249: carboxyterminal deletion of 24 amino acids, terminal Ser249 (protein, UniProt P0A9D4 1-249, looked up, fragment) MSCEELEIVWNNIKAEARTLADCEPMLASFYHATLLKHENLGSALSYMLANKLSSPIMPAIAIREVVEEAYAADPEMIASAACDIQAVRTRDPAVDKYSTPLLYLKGFHALQAYRIGHWLWNQGRRALAIFLQNQVSVTFQVDIHPAAKIGRGIMLDHATGIVVGETAVIENDVSILQSVTLGGTGKSGGDRHPKIREGVMIGAGAKILGNIEVGRGAKIGAGSVVLQPVPPHTTAAGVPARIVGKPDS"
endpoint_name = "Ki"
display_unit = "µM"
test_value = 15

[[record]]
molecule = "cysE-Del250: carboxyterminal deletion of 23 amino acids, terminal Asp250 (protein, UniProt P0A9D4 1-250, looked up, fragment) MSCEELEIVWNNIKAEARTLADCEPMLASFYHATLLKHENLGSALSYMLANKLSSPIMPAIAIREVVEEAYAADPEMIASAACDIQAVRTRDPAVDKYSTPLLYLKGFHALQAYRIGHWLWNQGRRALAIFLQNQVSVTFQVDIHPAAKIGRGIMLDHATGIVVGETAVIENDVSILQSVTLGGTGKSGGDRHPKIREGVMIGAGAKILGNIEVGRGAKIGAGSVVLQPVPPHTTAAGVPARIVGKPDSD"
endpoint_name = "Ki"
display_unit = "µM"
test_value = 20

[[record]]
molecule = "cysE-Del255: carboxyterminal deletion of 18 amino acids, terminal Asp255 (protein, UniProt P0A9D4 1-255, looked up, fragment) MSCEELEIVWNNIKAEARTLADCEPMLASFYHATLLKHENLGSALSYMLANKLSSPIMPAIAIREVVEEAYAADPEMIASAACDIQAVRTRDPAVDKYSTPLLYLKGFHALQAYRIGHWLWNQGRRALAIFLQNQVSVTFQVDIHPAAKIGRGIMLDHATGIVVGETAVIENDVSILQSVTLGGTGKSGGDRHPKIREGVMIGAGAKILGNIEVGRGAKIGAGSVVLQPVPPHTTAAGVPARIVGKPDSDKPSMD"
endpoint_name = "Ki"
display_unit = "µM"
test_value = 30

[[record]]
molecule = "cysE-Del258: carboxyterminal deletion of 15 amino acids, terminal Gln258 (protein, UniProt P0A9D4 1-258, looked up, fragment) MSCEELEIVWNNIKAEARTLADCEPMLASFYHATLLKHENLGSALSYMLANKLSSPIMPAIAIREVVEEAYAADPEMIASAACDIQAVRTRDPAVDKYSTPLLYLKGFHALQAYRIGHWLWNQGRRALAIFLQNQVSVTFQVDIHPAAKIGRGIMLDHATGIVVGETAVIENDVSILQSVTLGGTGKSGGDRHPKIREGVMIGAGAKILGNIEVGRGAKIGAGSVVLQPVPPHTTAAGVPARIVGKPDSDKPSMDMDQ"
endpoint_name = "Ki"
display_unit = "µM"
test_value = 5


Request: Please look at this molecule and report its Ki: cysE-Del257: carboxyterminal deletion of 16 amino acids, terminal Asp257 (protein, UniProt P0A9D4 1-257, looked up, fragment) MSCEELEIVWNNIKAEARTLADCEPMLASFYHATLLKHENLGSALSYMLANKLSSPIMPAIAIREVVEEAYAADPEMIASAACDIQAVRTRDPAVDKYSTPLLYLKGFHALQAYRIGHWLWNQGRRALAIFLQNQVSVTFQVDIHPAAKIGRGIMLDHATGIVVGETAVIENDVSILQSVTLGGTGKSGGDRHPKIREGVMIGAGAKILGNIEVGRGAKIGAGSVVLQPVPPHTTAAGVPARIVGKPDSDKPSMDMD
Result: 7.5
